Overview of reported pIC50 across a group of compounds:
target: BIR3 domain of human cIAP-1 (residues 267-363) (Homo sapiens (Human)); test: cIAP-1 in vitro competitive displacement binding assay (fluorescence polarization; Probe A AVPIK(5&6FAM)-amide or Probe B AbuRPFK(5&6FAM)-amide)
pIC50: −log10 of the molar value. Counter-ions that a name gives are not always drawn.

>>> measurement("C[C@@H]1CN(CC(=O)N2CCc3cnc(Cc4ccccc4)cc32)CCN1 [Example 35, hydrochloride salt]")
"> 6.00"
>>> measurement("CCC(F)(F)c1cnc2c(c1)N(C(=O)CN1C[C@@H](C)NC[C@@H]1CN1CCOC[C@H]1COC)CC2(C)C [Example 256, dihydrochloride]")
"> 6.00"
>>> measurement("C[C@@H]1CN(CC(=O)N2CC(C)(C)c3cc(F)c(S(=O)(=O)c4ccccc4)cc32)CCN1 [Example 47, dihydrochloride salt]")
"> 6.00"
>>> measurement("C[C@@H]1CN(CC(=O)N2CCc3ccc(Cc4ccccc4)cc32)CCN1 [Example 29, hydrochloride salt]")
"> 5.00"
>>> measurement("C[C@@H]1CN(CC(=O)N2CC(C)(C)c3ncc(C(F)(F)CC4CC4)cc32)[C@@H](CN2CCOCC2)CN1 [Example 231, dihydrochloride]")
"> 6.00"
>>> measurement("CCC(F)(F)c1cc2c(cn1)C(C)(C)CN2C(=O)CN1C[C@@H](C)NC[C@@H]1CN1CC[C@@H](F)C1 [Example 214, hydrochloride]")
"> 6.00"

Task: For the compound shown here, COC[C@H]1CN[C@H](C)CN1CC(=O)N1C[C@](C)(c2cc(C)no2)c2ccc(Cc3ccccc3)cc21 [Example 174, hydrochloride] , give the reported pIC50.
Output: > 6.00

Task: For the compound shown here, `C[C@@H]1CN(CC(=O)N2CC(C)(C)c3ncc(Cc4ccc(F)cc4)cc32)CCN1` , give the reported pIC50.
Output: > 5.00

Task: For the compound shown here, `Cc1cnn(C[C@H]2CN[C@H](C)CN2CC(=O)N2CC3(Cc4ccccc4C3)c3ccc(C#N)cc32)c1` , give the reported pIC50.
Output: > 6.00
